Entry source: PubChem BioAssay (NCI)

test system: HCC-2998 colon; experiment: NCI tumour cell line growth inhibition, 48 h
Reported TGI values for a set of compounds

CC(=O)OCC1OC(n2c3c(c(-c4ccc(Cl)cc4)c(C#N)c2=S)CCCC3)C(OC(C)=O)C(OC(C)=O)C1OC(C)=O (centres undefined) ... > 100 µM
O=C1Nc2nccnc2C(=O)N2CCC[C@@H]12 ... > 100 µM

Can you look up the measured TGI of `O=C(/C=C/c1cccc([N+](=O)[O-])c1)c1ccc([N+](=O)[O-])cc1` for me?
> 100 µM

What do we get for CCCCCCCCCCCCOC1C(CNC(=O)C2OC3OC(C)(C)OC3C2NC(=O)CN2CCN(c3ccc(OC)cc3)CC2)OC2OC(C)(C)OC21 (centres undefined) ?
11 µM
